- System: HTT
- ASSAY_METHOD_TEXT: HiBiT protein abundance assay, HTT (K562 HiBiT knock-in)
- Type: cell-based, human
- CONDITION_SET: HiBiT knock-in K562 cells, 24 hours, top dose 10 μM
pIC50: −log10 of the molar value.
Below, each entry is listed with its recorded pIC50.

{"MOLECULE": "Cc1nc2cc(O)c(-c3ccc4nc(N5CC[C@H](NC(C)(C)C)C5)ccc4n3)cc2o1", "VALUE_TYPE": "pIC50", "MEAS_VALUE": "> 7.00"}
{"MOLECULE": "Cc1nc2cc(-c3ccc4nc(N5CCC(NC(C)(C)C)C5)ccc4n3)c(O)cc2n1C (stereo not shown)", "VALUE_TYPE": "pIC50", "MEAS_VALUE": "6.00 to 7.00"}
{"MOLECULE": "Cc1c(O)c(-c2nc(C(=O)NC(C)C)c3cc(N4C[C@@H](C)N[C@@H](C)C4)ccc3n2)cc2cn(C)nc12", "VALUE_TYPE": "pIC50", "MEAS_VALUE": "> 7.00"}

Entry Cc1nc2cc(O)c(-c3ccc4nc(N5CCNC(C(C)(C)C)C5)ccc4n3)cc2o1 (stereo not shown) , pIC50 reported as 6.00 to 7.00

* * *

Below, each entry is listed with its recorded IC50.
- Test system: HTT
- ASSAY_METHOD_TEXT: HiBiT protein abundance assay, HTT (K562 HiBiT knock-in)
- Assay type: cell-based, human
- CONDITION_SET: HiBiT knock-in K562 cells, 24 hours, top dose 10 μM

Study these solved cases before continuing.
{"MOLECULE": "Cc1nc2c(F)c(O)c(-c3ccc4nc(N5CC[C@H](NC6CC6)C5)ccc4n3)cc2o1", "MEAS_VALUE": "< 100 nM"}
{"MOLECULE": "c1c[nH]c(-c2ccc3nc(C4CCNCC4)ccc3n2)n1", "MEAS_VALUE": "> 10000 nM"}
{"MOLECULE": "Cc1nc2c(F)c(O)c(-c3ccc4nc(N5CCC(NC(C)C)C5)ccc4n3)cc2o1 (stereo not shown)", "MEAS_VALUE": "< 100 nM"}
{"MOLECULE": "CNC(=O)c1nc(-c2cc3cn(C)nc3c(F)c2O)nc2ccc(N3C[C@@H](C)N[C@@H](C)C3)cc12", "MEAS_VALUE": "< 100 nM"}

Entry Cc1nc2c(C)c(O)c(-c3ccc4cc(N5CC[C@@H](NC6CC6)C5)ncc4n3)cc2o1 , IC50 reported as < 100 nM

Entry Cc1nc2cc(O)c(-c3ccc4nc(N5CCC(NC6CCC6)C5)ccc4n3)cc2o1 (stereo not shown) , IC50 reported as < 100 nM

Entry Cc1nc2cc(O)c(-c3ccc4nc(N5CC[C@H](NC6(C)CC6)C5)ccc4n3)cc2o1 , IC50 reported as < 100 nM

Entry Cc1c(O)c(-c2ccc3nc(N4CC[C@@H](NC5(C)CC5)C4)ccc3n2)cc2cn(C)nc12 , IC50 reported as < 100 nM

* * *

- Tested on: MYB mRNA
- ASSAY_METHOD_TEXT: RT-qPCR splicing assay, MYB mRNA canonical (CJ) and alternative (AJ) junction
- Format: cell-based, human
- CONDITION_SET: Homo sapiens, MYB canonical junction mRNA, RT-qPCR; read-out: MYB CJ (decrease in CJ mRNA levels, IC50)
pIC50: −log10 of the molar value.
VALUE_TYPE: pIC50

{"MOLECULE": "Cc1c(O)c(-c2ccc3nc(N4CC[C@@H](NC(C)(C)C)C4)ccc3n2)cc2cn(C)nc12", "pIC50": "> 7.00"}

Entry Cn1cc2cc(-c3ccc4nc(N5CCC(NC6CCC6)C5)ccc4n3)c(O)c(F)c2n1 (stereo not shown) , pIC50 reported as > 7.00

Entry CN(C)C1CCN(c2ccc3nc(-c4cc5cn(C)nc5cc4O)ccc3n2)C1 (stereo not shown) , pIC50 reported as 6.00 to 7.00

Entry CNC1CCN(c2cc3c(Cl)cc(-c4cc5cn(C)nc5c(C)c4O)nc3cc2C)C1 (stereo not shown) , pIC50 reported as 6.00 to 7.00
